MEASURED_TARGET: human oxytocin receptor (Homo sapiens, UniProt P30559)
Construct: host or cells: CHO cells, stably transfected (pcDNA3.1 vector)
Sequence (P30559 1-389): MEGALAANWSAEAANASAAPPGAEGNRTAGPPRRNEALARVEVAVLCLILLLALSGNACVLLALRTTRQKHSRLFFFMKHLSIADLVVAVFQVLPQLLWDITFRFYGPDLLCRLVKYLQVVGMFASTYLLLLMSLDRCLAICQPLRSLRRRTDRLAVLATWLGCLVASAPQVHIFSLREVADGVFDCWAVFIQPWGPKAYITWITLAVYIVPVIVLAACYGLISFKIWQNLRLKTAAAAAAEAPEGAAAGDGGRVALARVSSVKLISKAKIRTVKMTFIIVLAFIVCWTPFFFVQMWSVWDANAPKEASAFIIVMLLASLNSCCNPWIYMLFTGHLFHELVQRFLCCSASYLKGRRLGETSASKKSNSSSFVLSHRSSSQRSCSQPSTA
MEASUREMENT_DESCRIPTION: Oxytocin binding in CHO cell membranes expressing human oxytocin receptors ([3H]oxytocin radioligand binding)
SETTINGS: 100 nM, read-out: OT % inhibition @ 100 nM
Recorded inhibition at 0.1 µM by entry
MEASURED_PROPERTY: inhibition at 0.1 µM (%)

INSERT INTO assay_data (molecule_smiles, measured_target, output_unit, numeric_readout) VALUES
  ('COc1cc(C(=O)N2Cc3ccc(C(=O)N4CCN(c5ccncc5)CC4)n3Cc3ccccc32)ccc1-n1c(C)ccc1C', 'human oxytocin receptor (Homo sapiens, UniProt P30559)', '%', 38),
  ('Cc1ccccc1-c1ccc(C(=O)N2Cc3ccc(C(=O)NCCc4ccccn4)n3Cc3ccccc32)cc1C', 'human oxytocin receptor (Homo sapiens, UniProt P30559)', '%', 67),
  ('COc1cc(C(=O)N2Cc3ccc(C(=O)N(C)Cc4cccnc4)n3Cc3ccccc32)ccc1-c1cccc2ccccc12', 'human oxytocin receptor (Homo sapiens, UniProt P30559)', '%', 70),
  ('COc1cc(C(=O)N2Cc3ccc(C(=O)NCCc4ccccn4)n3Cc3ccccc32)ccc1-c1cccc2ccccc12', 'human oxytocin receptor (Homo sapiens, UniProt P30559)', '%', 32),
  ('COc1cccc(-c2ccc(C(=O)N3Cc4ccc(C(=O)NCCc5ccccn5)n4Cc4ccccc43)cc2C)c1', 'human oxytocin receptor (Homo sapiens, UniProt P30559)', '%', 31),
  ('COc1cccc(-c2ccc(C(=O)N3Cc4ccc(C(=O)NCCc5ccccn5)n4Cc4ccccc43)cc2OC)c1', 'human oxytocin receptor (Homo sapiens, UniProt P30559)', '%', 40),
  ('COc1cccc(-c2cc(OC)c(C(=O)N3Cc4ccc(C(=O)NCc5cccnc5)n4Cc4ccccc43)cc2Cl)c1', 'human oxytocin receptor (Homo sapiens, UniProt P30559)', '%', 18);
